System: RARg:RXRa (NR concentration 270 nM, RXRa partner concentration 90 nM)
Assay: PBM binding z-score (relative to random genomic background probes); higher = stronger binding; sequences stand for … in GC…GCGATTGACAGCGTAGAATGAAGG
Mark 1 for reported PBM binding z-score of 2 or greater; mark -1 for anything smaller.

Enquiry: Given "TCTTGTAGATCAATAGAGGTTAAGAGAGTGCGCT" , state whether its PBM binding z-score is at least 2.
Return: -1

Enquiry: Given "CCGACTGGGGCAAGGTTACCATTACGCACAGCCA" , state whether its PBM binding z-score is at least 2.
Return: -1

Enquiry: Given "AGAATGAGGTTATTCAGATCAGGGAATTGCGGTC" , state whether its PBM binding z-score is at least 2.
Return: -1

Enquiry: Given "CGTCCAAGGTCAGCAGATCAGTGAAAGCGACGTG" , state whether its PBM binding z-score is at least 2.
Return: 1
